# Tested on: HLA-A*02:01-expressing target cells (T2 cells)
# Format: cell-based, human
# Condition Label: cells induced from HLA-A*02:01-positive PBMCs; peptide-pulsed T2 cells vs T2 cells not pulsed
Quantity Measured: Peptide-specific IFN-γ production (ELISPOT)

MMGFKMNYQV (a peptide derived from ORF1ab polyprotein of SARS-CoV-2) [Peptide 5, SARS-CoV-2 ORF1ab-derived 10 mer peptide, position 5982] : observed
TLEPEYENSV [Peptide 13, SARS-CoV-2 ORF1ab-derived 10 mer peptide, position 5740] : observed
SLFDMSKFPL (a peptide derived from ORF1ab polyprotein of SARS-CoV-2) [Peptide 1, SARS-CoV-2 ORF1ab-derived 10 mer peptide, position 7041] : observed

====

# Test system: HLA-A*02:01-expressing target cells (T2 cells)
# Assay type: cell-based, human
# Condition Label: cells induced from HLA-A*02:01-positive PBMCs; peptide-pulsed T2 cells vs T2 cells not pulsed
Quantity Measured: Peptide-specific IFN-γ production (ELISPOT)

YMPASWVMRI (a peptide derived from ORF1ab polyprotein of SARS-CoV-2) [Peptide 4, SARS-CoV-2 ORF1ab-derived 10 mer peptide, position 3654] : observed
FGMSRIGMEV (a peptide derived from N polyprotein of SARS-CoV-2) [Peptide 9, SARS-CoV-2 N protein-derived 10 mer peptide, position 315] : observed
YVYNPFMIDV (a peptide derived from ORF1ab polyprotein of SARS-CoV-2) [Peptide 11, SARS-CoV-2 ORF1ab-derived 10 mer peptide, position 6160] : observed
